# Tested on: MV-4-11 (carrying MLL-AF4)
# measurement-description: Inhibition of proliferation of human tumor cells (Alamar Blue, 7 days), MV-4-11
# Type: cell-based
# stated-conditions: Homo sapiens, MV4-11, 168 h, MV-4-11 cells (carrying MLL-AF4), method calls the value GI50
Each record here notes measured log10(IC50).
Values below are the log10 of the recorded IC50, with nM as the unit.

compound	measured-value
Cc1nc(F)c2c(-c3ccc(F)cc3C(=O)N3[C@H](C)COC[C@H]3C)cc(C3CN(CC4CCN(C(=O)C5CC5)CC4)C3)cn12 [Example 215]	0.83
CCNC(=O)N1CCC(C(C)N2CC(c3cc(-c4ccc(F)cc4C(=O)N(CC)C(C)C)c4c(F)nc(C)n4c3)C2)CC1 (stereo not drawn) [Example 282]	0.73
CCN(C(=O)c1cc(F)ccc1-c1cc(C2=CCC(NCc3ccc4oc(=O)[nH]c4c3)CC2)cn2cncc12)C(C)C (stereo not drawn) [Example 16]	1.15
CNC(=O)N1CCC(CN2CC(c3cc(-c4ccc(F)cc4C(=O)N4CCOC[C@H]4C)c4c(F)nc(C)n4c3)C2)CC1 [Example 250]	1.41
Cc1nc(F)c2c(-c3ccc(F)cc3C(=O)N3[C@H](C)COC[C@H]3C)cc(C3CN([C@H](C)C4CCOCC4)C3)cn12 [Example 209-1]	1.08

Which log10(IC50) is listed for Cc1nc(F)c2c(-c3ccc(F)cc3C(=O)N3CCOC[C@H]3C)cc(C3CN(C[C@H]4CC[C@@H](n5cncn5)CC4)C3)cn12 [Example 267] ?
1.30

Query: log10(IC50); subject: CO[C@@H]1CN(CCC[C@H](C(C)C)N2CC(c3cc(-c4ccc(F)cc4C(=O)N4CCOC[C@H]4C)c4c(F)nc(C)n4c3)C2)C[C@H]1O (relative stereo) [Example 291]
0.20

Which value of log10(IC50) has been reported for CCS(=O)(=O)N[C@H]1CC[C@H](CN2CC(c3cc(-c4ccc(F)cc4C(=O)N4[C@H](C)COC[C@H]4C)c4cnn(C)c4c3)C2)CC1 [Example 168] in the records?
1.51
